- TEST_SYSTEM: T1, human ACVR2A (human, UniProt P27037 20-135, limits assumed); also: test concentration or dose not given here
- T1 construct: also called activin receptor, type II A
- T1 sequence (P27037 20-135 limits assumed): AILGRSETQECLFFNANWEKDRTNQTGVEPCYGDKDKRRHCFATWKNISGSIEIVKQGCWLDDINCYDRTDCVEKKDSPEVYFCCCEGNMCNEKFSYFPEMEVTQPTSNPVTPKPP
- METHOD_NOTES: ELISA
MEASURE_NAME: optical density (OD)
Record the value in OD, omitting the unit from your answer.

Here is how some binders turned out for optical density.
BINDER: 373_D09 (antibody, V domains shown, VH and VL only) VH: EVQLLESGGGLVQPGGSLRLSCAASGFTFDSYSMNWVRQAPGKGLEWVSGINYNSGYTSYADSVKGRFTISRDNSKNTLYLQMNSLRAEDTAVYYCARSATWHDTHLDYWGQGTLVTVSS VL: DIQMTQSPSSLSASVGDRVTITCRASQSILTYLNWYQQKPGKAPKLVIYAATSRHSGVPSRFSGSGSGTDFTLTISSLQPEDFATYYCQQSYENPLTFGGGTKVEIK
OUTPUT_UNIT: OD
optical density: 3.46
//
BINDER: 369_D06 (antibody, V domains shown, VH and VL only) VH: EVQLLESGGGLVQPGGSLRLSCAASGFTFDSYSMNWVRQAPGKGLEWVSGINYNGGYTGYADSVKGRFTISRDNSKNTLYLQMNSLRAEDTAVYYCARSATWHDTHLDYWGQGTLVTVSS VL: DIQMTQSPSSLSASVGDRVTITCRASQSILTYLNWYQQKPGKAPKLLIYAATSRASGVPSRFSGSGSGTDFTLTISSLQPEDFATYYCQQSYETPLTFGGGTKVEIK
OUTPUT_UNIT: OD
optical density: 3.44
//
BINDER: 374_A08 (antibody, V domains shown, VH and VL only) VH: EVQLLESGGGLVQPGGSLRLSCAASGFTFDSYSMNWVRQAPGKGLEWVSNINYNSGYTSYADSVKGRFTISRDNSKNTLYLQMNSLRAEDTAVYYCARSATWHDTHLDYWGQGTLVTVSS VL: DIQMTQSPSSLSASVGDRVTITCRASQSIVTYLNWYQQKPGKAPKLLIYAATSLASGVPSRFSGSGSGTDFTLTISSLQPEDFATYYCQQSYDLPLTFGGGTKVEIK
OUTPUT_UNIT: OD
optical density: 3.59
//
BINDER: 374_E06 (antibody, V domains shown, VH and VL only) VH: EVQLLESGGGLVQPGGSLRLSCAASGFTFDSYSMNWVRQAPGKGLEWVSSINYNSGYKGYADSVKGRFTISRDNSKNTLYLQMNSLRAEDTAVYYCARSATWHDTHLDYWGQGTLVTVSS VL: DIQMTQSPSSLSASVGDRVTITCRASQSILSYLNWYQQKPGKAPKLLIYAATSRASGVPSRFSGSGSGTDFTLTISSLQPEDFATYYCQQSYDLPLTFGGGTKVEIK
OUTPUT_UNIT: OD
optical density: 3.84
//
BINDER: 371_B05 (antibody, V domains shown, VH and VL only) VH: EVQLLESGGGLVQPGGSLRLSCAASGFTFSSYSMNWVRQAPGKGLEWVSGINYNSGYTSYADSVKGRFTISRDNSKNTLYLQMNSLRAEDTAVYYCARSATWHDTHLDYWGQGTLVTVSS VL: DIQMTQSPSSLSASVGDRVTITCRASQSILTYLNWYQQKPGKAPKLVIYAATSLASGVPSRFSGSGSGTDFTLTISSLQPEDFATYYCQQSDETPLTFGGGTKVEIK
OUTPUT_UNIT: OD
optical density: 1.05

Problem: Tell us which optical density value is on record for 373_A07 (antibody, V domains shown, VH and VL only) VH: EVQLLESGGGLVQPGGSLRLSCAASGFTFSSYSMNWVRQAPGKGLEWVSNINYNGGYTGYADSVKGRFTISRDNSKNTLYLQMNSLRAEDTAVYYCARSATWHDTHLDYWGQGTLVTVSS VL: DIQMTQSPSSLSASVGDRVTITCRASQSILTYVNWYQQKPGKAPKLLIYAATSRASGVPSRFSGSGSGTDFTLTISSLQPEDFATYYCQQSDNLPLTFGGGTKVEIK
Solution: 3.52

Problem: Tell us which optical density value is on record for 373_H12 (antibody, V domains shown, VH and VL only) VH: EVQLLESGGGLVQPGGSLRLSCAASGFTFSDYSMNWVRQAPGKGLEWVSGINYNSGYKGYADSVKGRFTISRDNSKNTLYLQMNSLRAEDTAVYYCARSATWHDTHLDYWGQGTLVTVSS VL: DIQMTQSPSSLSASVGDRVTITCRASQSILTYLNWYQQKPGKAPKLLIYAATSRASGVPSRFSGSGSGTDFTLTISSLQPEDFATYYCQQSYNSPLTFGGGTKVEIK
Solution: 3.06

Problem: Tell us which optical density value is on record for 374_G01 (antibody, V domains shown, VH and VL only) VH: EVQLLESGGGLVQPGGSLRLSCAASGFTFDSYSMNWVRQAPGKGLEWVSNINYNSGYTSYADSVKGRFTISRDNSKNTLYLQMNSLRAEDTAVYYCARSATWHDTHLDYWGQGTLVTVSS VL: DIQMTQSPSSLSASVGDRVTITCRASQSILTYVNWYQQKPGKAPKLLIYATTSRHSGVPSRFSGSGSGTDFTLTISSLQPEDFATYYCQQSYNLPLTFGGGTKVEIK
Solution: 3.34

Problem: Tell us which optical density value is on record for 365_D06 (antibody, V domains shown, VH and VL only) VH: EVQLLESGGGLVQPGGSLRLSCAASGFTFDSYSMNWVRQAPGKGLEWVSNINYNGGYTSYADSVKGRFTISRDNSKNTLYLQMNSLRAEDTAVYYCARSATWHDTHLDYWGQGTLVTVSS VL: DIQMTQSPSSLSASVGDRVTITCRASQSILTYVNWYQQKPGKAPKLLIYAATSRASGVPSRFSGSGSGTDFTLTISSLQPEDFATYYCQQSYSLPLTFGGGTKVEIK
Solution: 2.95

Problem: Tell us which optical density value is on record for 370_A08 (antibody, V domains shown, VH and VL only) VH: EVQLLESGGGLVQPGGSLRLSCAASGFTFDSYSMNWVRQAPGKGLEWVSSINYNSGYTGYADSVKGRFTISRDNSKNTLYLQMNSLRAEDTAVYYCARSATWHDTHLDYWGQGTLVTVSS VL: DIQMTQSPSSLSASVGDRVTITCRASQSIVTYLNWYQQKPGKAPKLVIYAATSRASGVPSRFSGSGSGTDFTLTISSLQPEDFATYYCQQSYDLPLTFGGGTKVEIK
Solution: 2.41
